B1: EHEE_rd3_0053 (parent)
chain: TYTFKVDNKDQAKKAAKWAKKLGLSFQIEKHGDTFKITVQ

- Variants of: B1
- protocol-text: folding stability dG (cDNA display proteolysis); higher = more stable
- run-conditions: PBS, room temperature
We begin with a simple list: items and their reported folding stability dG.
measure: folding stability dG (kcal/mol)

[[record]]
variant_string = "K9T"
experimental_result = 2.02

[[record]]
variant_string = "Q11A"
experimental_result = 2.65

[[record]]
variant_string = "Q27F"
experimental_result = 2.6

[[record]]
variant_string = "T1M"
experimental_result = 2.37

[[record]]
variant_string = "K5S"
experimental_result = 2.96

[[record]]
variant_string = "K30A"
experimental_result = 2.21

[[record]]
variant_string = "L22G"
experimental_result = 0.897

[[record]]
variant_string = "A12Y"
experimental_result = 1.31

[[record]]
variant_string = "I28R"
experimental_result = 0.785

[[record]]
variant_string = "K36Y"
experimental_result = 3.17

[[record]]
variant_string = "Q40Y"
experimental_result = 3


Values compiled from the MegaScale stability set (Tsuboyama et al. 2023).
